Target: rNPFF-2 (Rattus norvegicus, UniProt Q9EQD2)
Construct: expressed in transfected cells
Sequence (Q9EQD2 whole entry): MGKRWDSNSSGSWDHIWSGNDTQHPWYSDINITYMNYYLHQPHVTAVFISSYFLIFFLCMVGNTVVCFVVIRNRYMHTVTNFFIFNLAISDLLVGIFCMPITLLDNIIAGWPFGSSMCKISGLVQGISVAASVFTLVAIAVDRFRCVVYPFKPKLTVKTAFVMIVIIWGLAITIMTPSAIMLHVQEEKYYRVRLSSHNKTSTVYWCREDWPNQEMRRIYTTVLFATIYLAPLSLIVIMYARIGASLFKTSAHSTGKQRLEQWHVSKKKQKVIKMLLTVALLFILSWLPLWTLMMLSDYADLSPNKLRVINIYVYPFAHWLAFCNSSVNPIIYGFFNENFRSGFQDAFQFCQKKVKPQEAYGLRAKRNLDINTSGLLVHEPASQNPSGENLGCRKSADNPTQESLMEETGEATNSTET
Assay: Functional activity (EC50 and intrinsic activity relative to NPFF)
Type: cell-based
Details: tested 0.001 nM to 3600 nM; read-out: Functional Activity rNPFF-2 EC50
Recorded endpoint: EC50

Which EC50 is listed for N=C(N)NCCC[C@H](NS(=O)(=O)c1c(F)c(F)c(F)c(F)c1F)C(=O)N[C@@H](Cc1ccccc1)C(N)=O ?
> 3.16 µM

Which EC50 is listed for N=C(N)NCCC[C@H](NS(=O)(=O)c1ccc2ccccc2c1)C(=O)N[C@H](Cc1ccccc1)C(N)=O ?
> 3.16 µM

Which EC50 is listed for N=C(N)NCCC[C@H](NS(=O)(=O)c1ccccc1[N+](=O)[O-])C(=O)N[C@@H](Cc1ccccc1)C(N)=O ?
> 3.16 µM

----------
Biological target: rNPFF-2 (Rattus norvegicus, UniProt Q9EQD2)
Construct: expressed in transfected cells
Experiment: Functional activity (EC50 and intrinsic activity relative to NPFF)
Type: cell-based
Conditions: tested 0.001 nM to 3600 nM; read-out: Functional Activity rNPFF-2 EC50
Answer each item with its documented pEC50.
Just so you know, pEC50 here is -log10 of the concentration in molar units; reply with that number alone.

Which pEC50 is listed for N=C(N)NCCC[C@H](NS(=O)(=O)c1ccc(F)cc1)C(=O)N[C@@H](Cc1ccccc1)C(N)=O ?
5.46

Which pEC50 is listed for N=C(N)NCCC[C@H](NS(=O)(=O)c1ccc(I)cc1)C(=O)N[C@@H](Cc1ccccc1)C(N)=O ?
5.85

Which pEC50 is listed for COc1ccc(S(=O)(=O)N[C@@H](CCCNC(=N)N)C(=O)N[C@@H](Cc2ccccc2)C(N)=O)cc1OC ?
5.74

Which pEC50 is listed for N=C(N)NCCC[C@H](NS(=O)(=O)c1ccc(F)cc1)C(=O)N[C@H](Cc1ccccc1)C(N)=O ?
5.71

Which pEC50 is listed for Cc1ccc(S(=O)(=O)N[C@@H](CCCNC(=N)N)C(=O)N[C@@H](Cc2ccccc2)C(N)=O)cc1 ?
5.64

Which pEC50 is listed for N=C(N)NCCC[C@H](NS(=O)(=O)c1cc(Cl)ccc1Cl)C(=O)N[C@@H](Cc1ccccc1)C(N)=O ?
5.63

Which pEC50 is listed for N=C(N)NCCC[C@H](NS(=O)(=O)c1c(F)cccc1F)C(=O)N[C@H](Cc1ccccc1)C(N)=O ?
5.56

Which pEC50 is listed for N=C(N)NCCC[C@H](NS(=O)(=O)Cc1ccccc1)C(=O)N[C@@H](Cc1ccccc1)C(N)=O ?
5.87

----------
Biological target: rNPFF-2 (Rattus norvegicus)
Construct: expressed in transfected cells
Assay: Functional activity (EC50 and intrinsic activity relative to NPFF)
Format: cell-based
Details: tested 0.001 nM to 3600 nM; read-out: Functional Activity rNPFF-2 EC50
Answer each item with its documented EC50.

Which EC50 is listed for N=C(N)NCCC[C@H](NS(=O)(=O)c1ccc(F)c(Cl)c1)C(=O)N[C@@H](Cc1ccccc1)C(N)=O [Compound 1017] ?
> 3.16 µM

Which EC50 is listed for COc1ccc(C)cc1S(=O)(=O)N[C@@H](CCCNC(=N)N)C(=O)N[C@@H](Cc1ccccc1)C(N)=O [Compound 2003] ?
> 3.16 µM

Which EC50 is listed for N#Cc1cccc(S(=O)(=O)N[C@@H](CCCNC(=N)N)C(=O)N[C@@H](Cc2ccccc2)C(N)=O)c1 [Compound 1023] ?
> 3.16 µM

These measurements were taken from patent US20030144310A1.
